FYI, the data here is from ChEMBL document CHEMBL3779892.

Test system: SK-MEL-5
Assay: Growth inhibition of human SK-MEL-5 cells at 10 uM after 48 hrs by sulforhodamine B assay
Format: functional
Conditions: SK-MEL-5, 48 h, read-out: GI
inhibition of growth at 10 µM values for the compounds below.
readoutType: inhibition of growth at 10 µM

>>> reading("COc1ccc(Cc2nnc(Nc3ccc(Cl)c(C(F)(F)F)c3)c3ccccc23)cc1")
"< 30%"
>>> reading("COc1ccc(Cc2nnc(Nc3ccc(NC(=O)Nc4cccc(Cl)c4)cc3)c3ccccc23)cc1")
"< 30%"
>>> reading("COc1ccc(Cc2nnc(Nc3ccc(NC(=O)Nc4cccc(OC)c4)cc3)c3ccccc23)cc1")
"< 30%"
>>> reading("COc1ccc(Cc2nnc(Nc3cccc(C(F)(F)F)c3)c3ccccc23)cc1")
"< 30%"
>>> reading("COc1ccc(Cc2nnc(Nc3ccc(OC)cc3)c3ccccc23)cc1")
"< 30%"
>>> reading("COc1ccc(Cc2nnc(Nc3ccc(NC(=O)Nc4ccccc4)cc3)c3ccccc23)cc1")
"< 30%"
>>> reading("COc1ccc(Cc2nnc(Nc3ccccc3)c3ccccc23)cc1")
"< 30%"
>>> reading("COc1ccc(Cc2nnc(Nc3ccc(NC(=O)Nc4ccc(Cl)cc4)cc3)c3ccccc23)cc1")
"< 30%"
>>> reading("COc1ccc(Cc2nnc(Nc3ccc(C#N)cc3)c3ccccc23)cc1")
"< 30%"
>>> reading("COc1ccc(Cc2nnc(Nc3ccc(NC(=O)Nc4ccc(OC)cc4)cc3)c3ccccc23)cc1")
"< 30%"

---

System: MCF7
Assay: Growth inhibition of human MCF7 cells at 10 uM after 48 hrs by sulforhodamine B assay
Assay type: functional
Conditions: MCF7, 48 h, read-out: GI
Entries and their inhibition of growth at 10 µM values follow.
readoutType: inhibition of growth at 10 µM (%)

>>> reading("COc1ccc(Cc2nnc(Nc3cccc(C(F)(F)F)c3)c3ccccc23)cc1")
35
>>> reading("COc1ccc(Cc2nnc(Nc3ccc(NC(=O)Nc4ccc(Cl)c(C(F)(F)F)c4)cc3)c3ccccc23)cc1")
46

---

Assay: Growth inhibition of human NCI-ADR-RES cells at 10 uM after 48 hrs by sulforhodamine B assay
Type: functional
Details: read-out: GI
readoutType: inhibition of growth at 10 µM

>>> reading("COc1ccc(Cc2nnc(Nc3cccc(Cl)c3)c3ccccc23)cc1")
"32%"
>>> reading("COc1ccc(Cc2nnc(Nc3ccc(NC(=O)Nc4cccc(Cl)c4)cc3)c3ccccc23)cc1")
"< 30%"
>>> reading("COc1ccc(Cc2nnc(Nc3cccc(OC)c3)c3ccccc23)cc1")
"30%"
>>> reading("COc1ccc(Cc2nnc(Nc3ccc(NC(=O)Nc4ccc(C#N)cc4)cc3)c3ccccc23)cc1")
"< 30%"
>>> reading("COc1ccc(Cc2nnc(Nc3ccc(NC(=O)Nc4ccccc4)cc3)c3ccccc23)cc1")
"< 30%"
>>> reading("COc1ccc(Cc2nnc(Nc3ccc(NC(=O)Nc4cccc(C(F)(F)F)c4)cc3)c3ccccc23)cc1")
"< 30%"
>>> reading("COc1ccc(Cc2nnc(Nc3ccc(NC(=O)Nc4ccccc4Cl)cc3)c3ccccc23)cc1")
"< 30%"
>>> reading("COc1ccc(Cc2nnc(Nc3cccc(C(F)(F)F)c3)c3ccccc23)cc1")
"40%"
>>> reading("COc1ccc(Cc2nnc(Nc3ccc(NC(=O)Nc4ccc(Cl)c(C(F)(F)F)c4)cc3)c3ccccc23)cc1")
"67%"
>>> reading("COc1ccc(Cc2nnc(Nc3ccc(C#N)cc3)c3ccccc23)cc1")
"< 30%"
>>> reading("COc1ccc(Cc2nnc(Nc3ccc(Cl)cc3)c3ccccc23)cc1")
"48%"
>>> reading("COc1ccc(Cc2nnc(Nc3ccccc3)c3ccccc23)cc1")
"< 30%"
>>> reading("COc1ccc(Cc2nnc(Nc3ccc(NC(=O)Nc4ccc(Cl)cc4)cc3)c3ccccc23)cc1")
"< 30%"
>>> reading("COc1ccc(Cc2nnc(Nc3ccc(NC(=O)Nc4cccc(OC)c4)cc3)c3ccccc23)cc1")
"< 30%"
>>> reading("COc1ccc(Cc2nnc(Nc3ccc(NC(=O)Nc4ccc(OC)cc4)cc3)c3ccccc23)cc1")
"< 30%"
>>> reading("COc1ccc(Cc2nnc(Nc3ccc(Cl)c(C(F)(F)F)c3)c3ccccc23)cc1")
"50%"
>>> reading("COc1ccc(Cc2nnc(Nc3ccc(OC)cc3)c3ccccc23)cc1")
"< 30%"
